- testSummary: logP determination by HPLC (reversed-phase column C 18), EC Directive 79/831 Annex V.A8
- Assay type: physicochemical
- conditionsUsed: reversed-phase HPLC column (C 18); at pH=2
I'd appreciate it if you could supply chromatographic logP values for the items below.
No unit in the answer, please; the number alone is enough.

Name the reported chromatographic logP value associated with the molecule O=c1[nH]c2cc(-n3c(=O)cc(C(F)(F)F)[nH]c3=O)c(F)cc2s1
1.48

Next molecule: CCOC(=O)CN1C(=O)COc2ccc(-n3c(=O)cc(C(F)(F)F)n(N)c3=O)cc21
1.9

Would you kindly repeat that for Nn1c(C(F)(F)F)cc(=O)n(-c2cc3[nH]c(=O)sc3cc2F)c1=O ?
1.66

Next entry: CS(=O)(=O)n1c(=O)sc2cc(F)c(-n3c(=O)cc(C(F)(F)F)n(N)c3=O)cc21
2.16

And what about the molecule CCOC(=O)n1c(=O)sc2cc(F)c(-n3c(=O)cc(C(F)(F)F)n(N)c3=O)cc21 ?
2.44

* * *

- testSummary: logP determination by HPLC (reversed-phase column C 18), EC Directive 79/831 Annex V.A8
- Format: physicochemical
- conditionsUsed: Table 1; a) acidic range: 0.1% aqueous phosphoric acid, acetonitrile; 43° C.
So I've got a bunch of compounds here, and I need their logP a) values.

Item under review: N#CCn1c(=O)sc2cc(F)c(-n3c(=O)cc(C(F)(F)F)n(N)c3=O)cc21 . Reported logP a)?
1.97^a)

What do you get for CC(C)(C)OC(=O)CN1C(=O)COc2cc(F)c(-n3c(=O)cc(C(F)(F)F)n(N)c3=O)cc21 ?
2.60^a)

Try CC(C)OC(=O)CN1C(=O)COc2cc(F)c(-n3c(=O)cc(C(F)(F)F)n(N)c3=O)cc21 next.
2.38^a)

Can you handle CCOC(=O)C=C(n1c(=O)sc2cc(F)c(-n3c(=O)cc(C(F)(F)F)n(N)c3=O)cc21)C(F)(F)F next?
2.98^a)

Here is the next compound: CC(C)(C)OC(=O)CN1C(=O)COc2ccc(-n3c(=O)cc(C(F)(F)F)n(N)c3=O)cc21
2.37^a)

Item: N#CCN1C(=O)COc2cc(F)c(-n3c(=O)cc(C(F)(F)F)n(N)c3=O)cc21
1.83^a)

Cool, now CCOC(=O)CN1C(=O)COc2cc(F)c(-n3c(=O)cc(C(F)(F)F)n(N)c3=O)cc21
2.14^a)

* * *

- testSummary: logP determination by HPLC (reversed-phase column C 18), EC Directive 79/831 Annex V.A8
- Assay type: physicochemical
- conditionsUsed: Table 1; a) acidic range: 0.1% aqueous phosphoric acid, acetonitrile; 43° C.
observedProperty: logP a)

May I ask what logP a) has been recorded for CC(C)COC(=O)n1c(=O)sc2cc(F)c(-n3c(=O)cc(C(F)(F)F)n(N)c3=O)cc21 ?
3.17^a)

COC(=O)C=C(CCl)n1c(=O)sc2cc(F)c(-n3c(=O)cc(C(F)(F)F)n(N)c3=O)cc21 , same question.
2.46^a)

Item: COC(=O)CN1C(=O)COc2cc(F)c(-n3c(=O)cc(C(F)(F)F)n(N)c3=O)cc21
1.90^a)

Request: N#Cn1c(=O)sc2cc(F)c(-n3c(=O)cc(C(F)(F)F)n(N)c3=O)cc21
2.19^a)

Thanks! And CC(C)OC(=O)CN1C(=O)COc2ccc(-n3c(=O)cc(C(F)(F)F)n(N)c3=O)cc21 ?
2.14^a)

Could you do the same for CCOC(=O)C=CCn1c(=O)sc2cc(F)c(-n3c(=O)cc(C(F)(F)F)n(N)c3=O)cc21 , please?
2.51^a)

Moving on to the next compound: CC(=O)n1c(=O)sc2cc(F)c(-n3c(=O)cc(C(F)(F)F)n(N)c3=O)cc21
2.36^a)

Another compound to check: N#CCN1C(=O)COc2ccc(-n3c(=O)cc(C(F)(F)F)n(N)c3=O)cc21
1.57^a)
